reported property: log10(IC50) (log10 of the value in nM)
A value of 2 here means IC50 of 100 in nM, since values are log10.

Task item: Can you look up log10(IC50) on human CSNK1D (Homo sapiens (Human), UniProt P48730) for CCN1CCc2[nH]c(-c3ccnc(NC(=O)C(C)c4ccc(F)cc4)c3)c(Nc3ccccc3)c2C1=O (single isomer, unassigned) [Example 25] ?
Reply: 1.95

Task item: # value lookup — system human CSNK1D (Homo sapiens (Human), UniProt P48730), readout log10(IC50), item CC1(C)Cc2[nH]c(-c3ccnc(NC(=O)C(CC(F)F)c4ccc(F)cc4)c3)c(Nc3cccc(F)c3)c2C(=O)N1 (single isomer, unassigned; enantiomer 2) [Example 121]
Reply: 1.80

Task item: Test system human CSNK1D (Homo sapiens (Human), UniProt P48730); read-out log10(IC50); what value for CC(C(=O)Nc1cc(-c2[nH]c3c(c2Nc2ccccc2)C(=O)N(C)CC3)ccn1)c1ccc(Cl)cc1 (single isomer, unassigned; (-)) [Example 80] ?
Reply: 1.48

Task item: Enter reported log10(IC50) observed with human CSNK1D (Homo sapiens (Human), UniProt P48730) for CC(C(=O)Nc1cc(-c2[nH]c3c(c2Nc2ccccc2)C(=O)NC(C)(C)C3)ccn1)c1ccc(F)cc1 (stereo not drawn) [Example 27]
Sequence (P48730 whole entry): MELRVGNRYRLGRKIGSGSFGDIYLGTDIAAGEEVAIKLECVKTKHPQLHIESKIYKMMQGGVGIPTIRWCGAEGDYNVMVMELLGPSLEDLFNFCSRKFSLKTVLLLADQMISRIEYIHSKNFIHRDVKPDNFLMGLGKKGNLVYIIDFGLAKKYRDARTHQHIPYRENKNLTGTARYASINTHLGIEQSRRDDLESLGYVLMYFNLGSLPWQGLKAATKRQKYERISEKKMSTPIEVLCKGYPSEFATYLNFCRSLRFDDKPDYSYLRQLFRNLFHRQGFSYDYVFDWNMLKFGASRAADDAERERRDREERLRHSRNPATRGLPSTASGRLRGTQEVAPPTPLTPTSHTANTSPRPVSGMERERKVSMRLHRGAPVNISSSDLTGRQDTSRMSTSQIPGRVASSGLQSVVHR
Reply: 1.56

Task item: Under human CSNK1D (Homo sapiens (Human), UniProt P48730): log10(IC50) value of CN(C)CCCC(C(=O)Nc1cc(-c2[nH]c3c(c2Nc2ccccc2)C(=O)N(C)CC3)ccn1)c1ccccc1 (single isomer, unassigned; (+)) [Example 60] ?
Reply: 1.07

Task item: Entry CN1CCc2[nH]c(-c3ccnc(NC(=O)Cc4ccc(F)cc4)c3)c(Nc3cccc(F)c3F)c2C1=O , system human CSNK1D (Homo sapiens (Human), UniProt P48730): what log10(IC50) was measured?
Reply: 0.65
